assay: log P by reversed-phase HPLC analogously to OECD Guideline 117; type: physicochemical; details: [a] acidic range, pH 2.7; read-out: log P[a]
PROPERTY_LABEL: chromatographic logP
Quick one: just the number, no unit, thanks!

Exam item: Please look up its chromatographic logP: CCOC(=O)NC(=O)c1nn(-c2cc(SCC(F)(F)F)c(C)cc2F)c(=O)[nH]c1=O
Marked response: 2.5

---

Assay: log P by reversed-phase HPLC analogously to OECD Guideline 117
Assay type: physicochemical
Conditions: reversed-phase C18 HPLC column, pH 2.7, running text; [a] acidic range, pH 2.7; read-out: log P[a]
Method: The log P values were determined analogously to OECD Guideline 117 (EC Directive 92/69/EEC) by HPLC (high-performance liquid chromatography) using reversed-phase columns (C 18), by the following methods: [a] […] Calibration is effected with solutions of a homologous series of unbranched alkan-2-ones (having 3 to 16 carbon atoms) with known log P values (log P values determined on the basis of the retention times by linear interpolation between two successive alkanones).
Attribute: chromatographic logP
I only need the number, thanks.

{"columns": ["MOLECULE", "chromatographic logP"],
 "data": [
  ["Cc1cc(F)c(-n2ncc(=O)[nH]c2=O)cc1[S+]([O-])CC(F)(F)F (stereo not drawn)", 1.58],
  ["Cc1cc(F)c(-n2ccc(=O)[nH]c2=O)cc1SCC(F)(F)F", 2.13],
  ["Cc1cc(F)c(-n2nc(C(=O)O)c(=O)[nH]c2=O)cc1SCC(F)(F)F", 1.79]
]}

Exam item: Recorded chromatographic logP for CCO/C=C/C(=O)NC(=O)Nc1cc(SCC(F)(F)F)c(C)cc1F , please?
Marked response: 3.78

Exam item: Report chromatographic logP for Cc1cc(F)c(-n2ccc(=O)[nH]c2=O)cc1[S+]([O-])CC(F)(F)F (stereo not drawn) please.
Marked response: 1.3

Exam item: Give the measured chromatographic logP of Cc1ccc(-n2ccc(=O)n(C)c2=O)cc1SCC(F)(F)F .
Marked response: 2.48

Exam item: Need chromatographic logP, item Cc1cc(F)c(-n2c(C)c(C#N)c(=O)[nH]c2=O)cc1SCC(F)(F)F
Marked response: 2.43

Exam item: What chromatographic logP value was documented for this molecule, CCn1c(=O)ccn(-c2cc(SCC(F)(F)F)c(C)cc2F)c1=O ?
Marked response: 2.93

Exam item: Find the recorded chromatographic logP belonging to CCOC(=O)c1cn(-c2cc(SCC(F)(F)F)c(C)cc2F)c(=O)n(C2CC2)c1=O and report it.
Marked response: 3.07
